The reported numbers originate from ChEMBL document CHEMBL4811290.

# System: Human immunodeficiency virus 1
# Method Notes: Antiviral activity against HIV1 harboring RT Y188L mutant infected in human MT4 cells assessed as inhibition of virus-induced cytopathic effect incubated for 5 days by MTT assay
# Type: functional, organism-based
# Test Context: Human immunodeficiency virus 1, MT4, 120 h
pEC50: −log10 of the molar value.
Listed below: pEC50 values for each entry.

Example entries begin here.
smiles_notation=Cc1cc(C#CC=C2CCN(S(=O)(=O)N(C)C)CC2)cc(C)c1Oc1ccnc(Nc2ccc(C#N)cc2)n1 assay_readout=pEC50 reported_measurement="< 5.32"
smiles_notation=CCOC(=O)CN1CCC(=CC#Cc2cc(C)c(Oc3ccnc(Nc4ccc(C#N)cc4)n3)c(C)c2)CC1 assay_readout=pEC50 reported_measurement="< 3.70"
smiles_notation=COC(=O)c1ccc(CN2CCC(=CC#Cc3cc(C)c(Oc4ccnc(Nc5ccc(C#N)cc5)n4)c(C)c3)CC2)cc1 assay_readout=pEC50 reported_measurement="< 4.47"

// below: pEC50 requested for another compound
Look up and state reported pEC50 for `Cc1ccnc2c1NC(=O)c1cccnc1N2C1CC1`
< 4.82

---

# Method Notes: Selectivity index, ratio of CC50 for human MT4 cells to EC50 for Antiviral activity against HIV-1 IIIB infected in human MT4 cells
# Format: toxicity, cell-based
# Test Context: read-out: Selectivity Index
Listed below: selectivity ratio values for each entry.

smiles_notation=Cc1cc(C#CC=C2CCN(Cc3ccccc3C#N)CC2)cc(C)c1Oc1ccnc(Nc2ccc(C#N)cc2)n1 assay_readout="selectivity ratio" reported_measurement="> 604"
smiles_notation=Cc1cn([C@H]2C[C@H](N=[N+]=[N-])[C@@H](CO)O2)c(=O)[nH]c1=O assay_readout="selectivity ratio" reported_measurement="> 352"
smiles_notation=Cc1ccnc2c1NC(=O)c1cccnc1N2C1CC1 assay_readout="selectivity ratio" reported_measurement="> 94"

Look up and state reported selectivity ratio for `Nc1ccn([C@H]2CS[C@@H](CO)O2)c(=O)n1`
> 309
